SYSTEM_TESTED: PDE3 (Cavia porcellus)
ASSAY_PROCEDURE: Inhibition of guinea pig heart Phosphodiesterase 3
ENDPOINT_LABEL: pIC50
Value format note: pIC50 is -log10 of concentration (mol/L); just state the number.

## Input Param item = COc1ccc(C(=O)N2CCCc3cc(C4=NNC(=O)S[C@@H]4C)ccc32)cc1OC ; retrieve measured pIC50.
## Output 7.30
